# Measured target: EPHB2 (UniProt P29323)
# Sequence (P29323 whole entry, looked up): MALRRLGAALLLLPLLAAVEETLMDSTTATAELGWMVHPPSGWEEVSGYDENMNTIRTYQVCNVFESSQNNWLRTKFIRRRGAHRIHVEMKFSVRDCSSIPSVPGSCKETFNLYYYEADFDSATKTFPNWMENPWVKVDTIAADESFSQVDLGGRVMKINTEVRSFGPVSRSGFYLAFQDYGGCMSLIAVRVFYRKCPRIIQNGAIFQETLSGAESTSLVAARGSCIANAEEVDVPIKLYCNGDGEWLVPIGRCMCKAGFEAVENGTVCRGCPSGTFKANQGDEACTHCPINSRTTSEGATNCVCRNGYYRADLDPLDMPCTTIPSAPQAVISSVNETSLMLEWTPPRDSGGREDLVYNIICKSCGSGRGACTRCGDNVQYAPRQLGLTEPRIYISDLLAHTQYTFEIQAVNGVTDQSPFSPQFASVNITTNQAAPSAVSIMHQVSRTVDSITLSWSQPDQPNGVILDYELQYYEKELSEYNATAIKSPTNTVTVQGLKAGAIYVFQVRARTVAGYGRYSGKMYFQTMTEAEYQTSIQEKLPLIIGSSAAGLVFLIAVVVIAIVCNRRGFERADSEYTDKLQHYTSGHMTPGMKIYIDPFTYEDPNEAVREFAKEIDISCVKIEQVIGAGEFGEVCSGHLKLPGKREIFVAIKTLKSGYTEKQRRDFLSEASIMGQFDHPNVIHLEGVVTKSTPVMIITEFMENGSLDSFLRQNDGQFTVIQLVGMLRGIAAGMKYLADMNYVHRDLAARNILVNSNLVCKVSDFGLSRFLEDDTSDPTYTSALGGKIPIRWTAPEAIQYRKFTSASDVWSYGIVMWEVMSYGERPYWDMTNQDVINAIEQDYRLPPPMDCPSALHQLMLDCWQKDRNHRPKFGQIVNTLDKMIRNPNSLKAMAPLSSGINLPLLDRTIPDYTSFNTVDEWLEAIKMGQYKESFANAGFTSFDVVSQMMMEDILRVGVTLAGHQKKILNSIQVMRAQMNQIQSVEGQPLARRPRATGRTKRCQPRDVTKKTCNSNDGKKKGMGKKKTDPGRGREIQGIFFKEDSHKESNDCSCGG
# Experimental details: phosphorylation enrichment, bacterial display (enrichment ratio); higher = better substrate or ligand; peptides without Tyr show the background
Measured parameter: phosphorylation enrichment

YRDMDYRSYPH [RBM10_Y41_R46H] | 0.486
CTTIHYDFMCN [TP53_Y234_N235D_YF] | 0.514
CTTIHHNFMCN [TP53_Y234_Y234H_YF] | 0.51

---

Each record here notes measured SH2 binding enrichment.
# Measured target: SHP2-C SH2
# Experimental details: SH2 binding enrichment of the phosphorylated peptide, bacterial display (enrichment ratio); higher = better substrate or ligand; peptides without Tyr show the background
Measured parameter: SH2 binding enrichment

SDVCMYRKNTY [SYNE2_Y570_I574T] | 0.592
HFNLTYRILSF [MMP23B_Y95] | 0.587
RGLQVYHRRNA [LRP2_Y2010] | 0.604
LFSLGYHQSLW [GANAB_Y396_R400L] | 0.59

---

# Measured target: Grb2 SH2 (UniProt P62993)
# Sequence (P62993 whole entry, looked up): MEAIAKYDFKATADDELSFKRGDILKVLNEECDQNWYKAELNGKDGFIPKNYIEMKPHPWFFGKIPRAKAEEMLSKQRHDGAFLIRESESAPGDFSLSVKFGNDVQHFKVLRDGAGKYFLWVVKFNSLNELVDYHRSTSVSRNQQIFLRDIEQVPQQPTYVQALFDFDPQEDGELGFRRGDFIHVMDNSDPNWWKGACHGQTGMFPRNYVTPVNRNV
# Experimental details: SH2 binding enrichment of the phosphorylated peptide, bacterial display (enrichment ratio); higher = better substrate or ligand; peptides without Tyr show the background
Reported values of SH2 binding enrichment for individual entries
Measured parameter: SH2 binding enrichment

SQDSAYHSGIQ [FLG_Y3940] | 0.899
RGGWAYVLHPT [TRMT61A_Y67_V66A] | 0.905
FEEDSYVTRSQ [RET_Y905_K907T_YF] | 0.878
KILGRYYETSS [PAX2_Y72_G76S] | 0.89
GLDSSYLLRDS [SH2D1A_Y29_G27S] | 0.908
KNNDGNIDFAE [MCFD2_Y135_Y135N_YF] | 0.912
DRLASYLDKLR [KRT12_Y139_V143L] | 0.876
THQNSYQPGRK [CEFIP_Y210] | 0.903
GLSSAYGDLTS [KRT8_Y427_G429D] | 0.878
PELINYHQHFS [BTK_Y361_N365Y_YF] | 0.895
DTDSSYCIPIA [GAB1_Y373_T377I] | 0.88

---

# Measured target: c-Src SH2
# Experimental details: SH2 binding enrichment of the phosphorylated peptide, bacterial display (enrichment ratio); higher = better substrate or ligand; peptides without Tyr show the background
Catalogue of sequences with associated SH2 binding enrichment
Measured parameter: SH2 binding enrichment

GQECEYPPTQD [METAP2_Y137] | 0.521
LLILEYAKYGS [RET_Y806_V804L] | 1.31
HEGKIYEFNQV [ZNF665_Y162_YF] | 0.371
DLAGRYYALKS [CKB_Y173] | 1.47
EGLRRYLENGK [HLA-A_Y195_W191G] | 0.405
TRSYDYTEGGD [FGF7_Y58_M59T] | 1.65
AEVDTYCRHNF [HLA-DRB1_Y107_A103E_YF] | 0.454
QDLTDYLMKIL [ACTA2_Y190_R185Q] | 0.861
SVCPDYDLCSI [SQSTM1_Y148_V153I] | 0.692
KQFWRYFPGNL [SLC25A4_Y112_A114P] | 0.739
IGEGTYGVVYK [CDK2_Y15] | 0.507
NQSVRYDSSLK [ABCC8_Y1353_L1349Q] | 0.404
PADQAYSWYQH [NDST1_Y711_R709Q] | 0.63
PLDGEYFTRQI [TP53_Y327_L330R] | 0.675
SAGSSYSISVI [PAX5_Y179_G183V] | 0.62

---

# Measured target: Grb2 SH2 (UniProt P62993)
# Experimental details: SH2 binding enrichment of the phosphorylated peptide, bacterial display (enrichment ratio); higher = better substrate or ligand; peptides without Tyr show the background
Measured parameter: SH2 binding enrichment

SSQAHYRLSAF [ADAMTS9_Y100] | 0.816
LKETGYVVERP [BCLAF1_Y466] | 0.862
GRGMPYGGRGD [TGM1_Y312_R307G] | 0.87
GFEEAYSVFKK [PAFAH1B1_Y28_YF] | 1.03
LEQDEYALHSH [HADHB_Y244_R247H] | 0.744
GRLVEYDIDEV [SMS_Y134] | 0.812
VLTSKYRGGGG [HBA1_Y141] | 1.39
IETGKYEILTE | 0.746
SISLRYEGRVY [ABL1_Y167] | 1.11
YEPDAYDDLDQ [ELP5_Y302] | 0.767
VVHGSYDEIEG [SEC24A_Y263_S261G] | 0.801
CGQDPYIRELG [UROS_Y19] | 0.731
EKMWTYMPSAE [GRIA4_Y695_R697P] | 0.92
DDFDLYGGEKF [PTPN11_Y66_Y62D_YF] | 0.569
DLAGRYYALRS [CKB_Y173_K177R] | 0.775
IAAEFYDNLPH [DEGS1_Y284_YF] | 0.774
CSEEMYRLMLQ [RET_Y981] | 0.7
LNWIFYKDQTG [RS1_Y166_YF] | 0.937
GKMSSYAFFVQ [HMGB1_Y16] | 1.13
IIQRAYRGHLL [SCN1A_Y1926_R1928G] | 0.758
RRNEEYCLLAS [ITK_Y198_D202A] | 1.11
SHSMKYFDTAV [HLA-C_Y31_R30K] | 1.01

---

# Measured target: c-Src SH2
# Experimental details: SH2 binding enrichment of the phosphorylated peptide, bacterial display (enrichment ratio); higher = better substrate or ligand; peptides without Tyr show the background
Measured parameter: SH2 binding enrichment

IVLRSYPASDH [NID2_Y449_G453D] | 0.467
GRRNTYFASIA [ACADM_Y352_YF] | 0.356
FRVAGYKTQGG [TIA1_Y383_E384K_YF] | 0.489

---

# Measured target: EPHB2 (UniProt P29323)
# Experimental details: phosphorylation enrichment, bacterial display (enrichment ratio); higher = better substrate or ligand; peptides without Tyr show the background
Attribute: phosphorylation enrichment
Measured parameter: phosphorylation enrichment

PGIRMYQVQFN [LRFN1_Y454_YF] | 0.505
VPANRYDLLRL [FARSB_Y72_C76R] | 0.403
IGSHAYGDQYR [IDH1_Y135_R132S] | 0.419

---

Consider the following sequences and their measured phosphorylation enrichment readings.
# Tested on: c-Src
# Experimental details: phosphorylation enrichment, bacterial display (enrichment ratio); higher = better substrate or ligand; peptides without Tyr show the background
Measured parameter: phosphorylation enrichment

CDDGKYVFVVT [RPS6KA3_Y488_Y483C_YF] | 0.412
FGPPQYNIQFS [ERBB2IP_Y977_YF] | 0.395
FEREQYADRAR [RBM4_Y355_YF] | 0.396
ARLEFYENEKK [IRS1_Y47_YF] | 0.411
SGPRCYTIAAL [TTR_Y125_R124C] | 0.399
TRHDEYLEVTK [MAP1A_Y2217] | 0.401
GRGMPYGGRGD [TGM1_Y312_R307G] | 0.402

---

# Measured target: SHP2-C SH2
# Experimental details: SH2 binding enrichment of the phosphorylated peptide, bacterial display (enrichment ratio); higher = better substrate or ligand; peptides without Tyr show the background
In this section, each of the sequences is paired with its reported SH2 binding enrichment.
Measured parameter: SH2 binding enrichment

VEDHDYEGGIG [TKT_Y564_Y563D] | 0.506
RRVLVYRGRGA [QDPR_Y16_G17R] | 0.5
ILDEAYVMAIV [EGFR_Y764_S768I] | 0.581
RRNEEYCLLAS [ITK_Y198_D202A] | 0.498
GVPLGYPIKAP [ELN_Y206] | 0.666
VREIRYQGGNR [VWF_Y1570] | 0.476
QRALLYEDALY [UNC13D_Y56] | 0.542
SGSIHYSRVPR [GLB1_Y57] | 0.824
TCFDKYTGNTF [FN1_Y101_YF] | 0.98
FDAHIYEGCVI [PRKCD_Y64_R67C] | 0.758
AGIKAYQSCLQ [ADGRA2_Y377_T375K] | 0.64
YMKEPYIQSRF [HIPK4_Y175_V171M] | 0.832
GIYEDYVEGLR [MYL6_Y89_T85I] | 0.717
IGRHAYGDQFR [IDH1_Y135_YF] | 0.633
PKEEPYQMQEK [SLC5A3_Y565] | 0.614

---

# Measured target: Hck (UniProt P08631)
# Sequence (P08631 whole entry, looked up): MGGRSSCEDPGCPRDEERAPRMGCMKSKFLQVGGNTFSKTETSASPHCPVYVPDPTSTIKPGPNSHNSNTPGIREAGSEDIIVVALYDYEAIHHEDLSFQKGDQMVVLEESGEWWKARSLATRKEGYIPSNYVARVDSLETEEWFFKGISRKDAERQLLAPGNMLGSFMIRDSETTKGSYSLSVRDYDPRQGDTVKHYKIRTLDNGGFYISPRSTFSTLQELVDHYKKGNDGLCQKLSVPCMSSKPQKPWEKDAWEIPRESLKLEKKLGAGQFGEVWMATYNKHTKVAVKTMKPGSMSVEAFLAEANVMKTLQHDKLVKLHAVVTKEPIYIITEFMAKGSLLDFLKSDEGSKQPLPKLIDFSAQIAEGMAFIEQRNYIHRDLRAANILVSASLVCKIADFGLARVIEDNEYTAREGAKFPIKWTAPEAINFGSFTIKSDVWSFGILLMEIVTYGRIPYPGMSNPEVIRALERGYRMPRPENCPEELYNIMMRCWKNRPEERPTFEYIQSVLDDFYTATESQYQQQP
# Experimental details: phosphorylation enrichment, bacterial display (enrichment ratio); higher = better substrate or ligand; peptides without Tyr show the background
Measured parameter: phosphorylation enrichment

YPIDHYLGKEM [G6PD_Y202_R198P] | 0.492
LSRDVYEEDSY [RET_Y900] | 0.771
RREWYYEVIIA [BACE1_Y260_V265A] | 0.513
PKAWNYELPAT [PROM1_Y34] | 0.597
VILENYGADID [DNAH5_Y596_L591V] | 0.515
HFVDEYDPTME [KRAS_Y32_I36M] | 0.702
IGEVVYQRAAM [GRIN2A_Y502_V506A] | 1.66
PKEEPYQMQEK [SLC5A3_Y565] | 0.566
ELAVNYQEQAS [SLC9A9_Y591_I589V] | 0.559
PTFKHYANSTQ [SLC12A3_Y70_E68K_YF] | 0.507
RDEHGYISRCF [HSPB1_Y133_Q128R] | 0.755
YTGNTYRVGDT [FN1_Y106] | 0.486
DPFHVYIKNHV [KCNE3_Y95_R99H_YF] | 0.519
PVKSEYPSIKL [NPC2_Y119] | 0.515
LAAAKYKLNVD [SMARCA2_Y1190] | 0.181
PHIKTYMRPSP [TDP1_Y497] | 0.441
QKNVSYVSTVS [TASOR_Y1043] | 0.47
SGIYQYNIAKF [FOXL2_Y83_I84N] | 4.76
CDDGKYVFVVT [RPS6KA3_Y488_Y483C_YF] | 0.508
